Tested on: human APOE RNA
Assay: Activity in APOE C57BL/6NTac-Apoeem7250 knock-in mice, single ICV bolus, 16 weeks (Example 12)
Assay type: in vivo
Settings: spinal cord; single ICV bolus 300 μg; 16 weeks post treatment; normalized to mouse Ppia
Strand notation (5' to 3'): a small letter for the sugar, then the base; units joined by * are phosphorothioate-linked, units joined directly phosphodiester-linked; [ ] holds rarer units or linkages, { } end groups; capitals alone tell only the bases. [ms] = mesyl phosphoramidate linkage; e = 2'-O-(2-methoxyethyl) (MOE); k = constrained ethyl (cEt); [5mC] = 5-methylcytosine; d = 2'-deoxy (DNA)
Reported endpoint: APOE RNA (% control) Spinal Cord
Give your result in % control as a bare value.

Req: May I ask what APOE RNA (% control) Spinal Cord has been recorded for 1693080: 6-10-4 MOE gapmer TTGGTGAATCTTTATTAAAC, linkages ssssoszzszssszssoss (eT*eT*eG*eG*eTeG*dA[ms]dA[ms]dT*d[5mC][ms]dT*dT*dT*dA[ms]dT*dT*eAeA*eA*e[5mC]) [compound 1693080] ?
Resp: 88

Req: May I ask what APOE RNA (% control) Spinal Cord has been recorded for 1736531 (e[5mC]*eT*eT*eG*eG*kTdG[ms]dA[ms]dA[ms]dT*d[5mC]*dT*dT*dT*dA[ms]dT*eT*eA*eA*eA; antisense) [Compound 1736531] ?
Resp: 74

Req: May I ask what APOE RNA (% control) Spinal Cord has been recorded for 1736492 (e[5mC]*eTeT*eG*eG*eT*dG[ms]dA[ms]dA[ms]dT*d[5mC]*dT*dT*dT*dA[ms]dT*kT*eA*eA*eA; antisense) [Compound 1736492] ?
Resp: 52

Req: May I ask what APOE RNA (% control) Spinal Cord has been recorded for 1693043: 5-10-5 MOE gapmer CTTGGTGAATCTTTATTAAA, linkages sssoszzzzssssssosss (antisense e[5mC]*eT*eT*eGeG*dT[ms]dG[ms]dA[ms]dA[ms]dT*d[5mC]*dT*dT*dT*dA*eTeT*eA*eA*eA) [compound 1693043] ?
Resp: 73

Req: May I ask what APOE RNA (% control) Spinal Cord has been recorded for 1785599: modified oligonucleotide complementary to human APOE RNA (k[5mC]*kT*kT*dG[ms]dG[ms]dT[ms]dG[ms]dA[ms]dA[ms]dT[ms]d[5mC]*dT*dT*dT*dA*dT*kT*kA*dA[ms]kA; antisense) [compound 1785599] ?
Resp: 54

====

Recorded APOE RNA (% UTC) 5 nM for the following substances
Tested on: human APOE RNA
Assay: Dose-dependent inhibition of human APOE RNA in HepG2 cells, electroporation, 50,000 cells per well, RT-PCR normalized to GAPDH (Example 4, Tables 8-10)
Format: cell-based
Conditions: HepG2 cells, electroporation, 24-hour treatment, 5 nM, Table 8
Strand notation (5' to 3'): a small letter for the sugar, then the base; units joined by * are phosphorothioate-linked, units joined directly phosphodiester-linked; [ ] holds rarer units or linkages, { } end groups; capitals alone tell only the bases. [ms] = mesyl phosphoramidate linkage; e = 2'-O-(2-methoxyethyl) (MOE); k = constrained ethyl (cEt); [5mC] = 5-methylcytosine; d = 2'-deoxy (DNA)
Give your result in % UTC as a bare value.

INSERT INTO results (substance, data_value) VALUES
  ('1785601: modified oligonucleotide complementary to human APOE RNA (k[5mC]*kT*kT*dG[ms]dG[ms]dT[ms]dG*dA[ms]dA[ms]dT*d[5mC]*dT*dT*dT*dA[ms]dT*kT*kA*dA[ms]kA; antisense) [compound 1785601]', 111);

Req: May I ask what APOE RNA (% UTC) 5 nM has been recorded for 1778111: modified oligonucleotide complementary to human APOE RNA (eA*e[5mC]eTeTeG*kG*dT*dG[ms]dA[ms]dA*dT*d[5mC]*dT*dT*dT*dA[ms]eTeT*eA*eA; antisense) [compound 1778111] ?
Resp: 75

====

Test system: human APOE RNA
Test: Dose-dependent inhibition of human APOE RNA in HepG2 cells, electroporation, 50,000 cells per well, RT-PCR normalized to GAPDH (Example 4, Tables 8-10)
Type: cell-based
Conditions: HepG2 cells, electroporation, 24-hour treatment, 3,200 nM, Table 8
Strand notation (5' to 3'): a small letter for the sugar, then the base; units joined by * are phosphorothioate-linked, units joined directly phosphodiester-linked; [ ] holds rarer units or linkages, { } end groups; capitals alone tell only the bases. [ms] = mesyl phosphoramidate linkage; e = 2'-O-(2-methoxyethyl) (MOE); k = constrained ethyl (cEt); [5mC] = 5-methylcytosine; d = 2'-deoxy (DNA)
Reported endpoint: APOE RNA (% UTC) 3,200 nM
Give your result in % UTC as a bare value.

Below: 3 substances and their reported APOE RNA (% UTC) 3,200 nM.
INSERT INTO results (substance, system, data_value) VALUES
  ('1785617: modified oligonucleotide complementary to human APOE RNA (k[5mC]*dT[ms]dT[ms]kG*dG[ms]kT*dG[ms]dA[ms]dA[ms]dT[ms]d[5mC]*dT*dT*dT*dA*dT*kT*kA*dA[ms]kA; antisense) [compound 1785617]', 'human APOE RNA', 18),
  ('1778114: modified oligonucleotide complementary to human APOE RNA (eA*e[5mC]eTeTkG*kG*dT*dG[ms]dA[ms]dA*dT*d[5mC]*dT*dT*dT*dA[ms]eTeT*eA*eA; antisense) [compound 1778114]', 'human APOE RNA', 20),
  ('1778131: modified oligonucleotide complementary to human APOE RNA (eA*e[5mC]eTeTeGkG*dT*dG[ms]dA[ms]dA*dT*d[5mC]*dT*dT*dT*dA[ms]kTkT*eA*eA; antisense) [compound 1778131]', 'human APOE RNA', 28);

As a next step, examine the substance that follows.
Req: What reported APOE RNA (% UTC) 3,200 nM corresponds to 1778111: modified oligonucleotide complementary to human APOE RNA (eA*e[5mC]eTeTeG*kG*dT*dG[ms]dA[ms]dA*dT*d[5mC]*dT*dT*dT*dA[ms]eTeT*eA*eA; antisense) [compound 1778111] on human APOE RNA?
Resp: 17

====

Recorded APOE RNA (% UTC) for the following substances
System: human APOE RNA
Experiment: Dose-dependent inhibition of human APOE RNA in HepG2 cells, electroporation, 50,000 cells per well, RT-PCR normalized to GAPDH (Example 4, Tables 8-10)
Format: cell-based
Conditions: 8,000 nM; HepG2, electroporation, 24-hour treatment
Strand notation (5' to 3'): a small letter for the sugar, then the base; units joined by * are phosphorothioate-linked, units joined directly phosphodiester-linked; [ ] holds rarer units or linkages, { } end groups; capitals alone tell only the bases. [ms] = mesyl phosphoramidate linkage; k = constrained ethyl (cEt); [5mC] = 5-methylcytosine; d = 2'-deoxy (DNA)

INSERT INTO results (substance, data_value) VALUES
  ('1746784 (k[5mC]*kT*kT*dG[ms]dG[ms]dT[ms]dG[ms]dA[ms]dA[ms]dT*d[5mC]*dT*dT*dT*dA[ms]dT*kT*kA*dA[ms]kA; antisense) [Compound 1746784]', '7 % UTC'),
  ('1746812 (k[5mC]*dT[ms]dT[ms]dG[ms]kG*kT*dG[ms]dA[ms]dA[ms]dT*d[5mC]*dT*dT*dT*dA[ms]dT*dT[ms]kA*kA*kA; antisense) [Compound 1746812]', '19 % UTC'),
  ('1746790 (k[5mC]*dT[ms]kT*dG[ms]dG[ms]kT*dG[ms]dA[ms]dA[ms]dT*d[5mC]*dT*dT*dT*dA[ms]dT*kT*kA*dA[ms]kA; antisense) [Compound 1746790]', '15 % UTC'),
  ('1746795 (k[5mC]*kT*dT[ms]kG*dG[ms]dT[ms]dG[ms]dA[ms]dA[ms]dT*d[5mC]*dT*dT*dT*dA[ms]dT*kT*dA[ms]kA*kA; antisense) [Compound 1746795]', '12 % UTC'),
  ('1746801 (k[5mC]*dT[ms]dT[ms]kG*kG*dT[ms]dG[ms]dA[ms]dA[ms]dT*d[5mC]*dT*dT*dT*dA[ms]dT*kT*dA[ms]kA*kA; antisense) [Compound 1746801]', '14 % UTC'),
  ('1753989 (k[5mC]*dT[ms]kT*dG[ms]kG*dT*dG[ms]dA[ms]dA[ms]dT*d[5mC]*dT*dT*dT*dA[ms]kT*dT[ms]kA*dA[ms]kA; antisense) [Compound 1753989]', '25 % UTC');

Req: May I ask what APOE RNA (% UTC) has been recorded for 1746813 (k[5mC]*dT[ms]dT[ms]kG*dG[ms]kT*dG[ms]dA[ms]dA[ms]dT*d[5mC]*dT*dT*dT*dA[ms]dT*dT[ms]kA*kA*kA; antisense) [Compound 1746813] ?
Resp: 19 % UTC

Req: May I ask what APOE RNA (% UTC) has been recorded for 1747050 (k[5mC]*kT*kT*dG[ms]dG[ms]kT*dG[ms]dA[ms]dA[ms]dT*d[5mC]*dT*dT*dT*dA[ms]dT*kT*dA[ms]dA[ms]kA; antisense) [Compound 1747050] ?
Resp: 14 % UTC

Req: May I ask what APOE RNA (% UTC) has been recorded for 1746807 (k[5mC]*kT*dT[ms]dG[ms]dG[ms]kT*dG[ms]dA[ms]dA[ms]dT*d[5mC]*dT*dT*dT*dA[ms]dT*dT[ms]kA*kA*kA; antisense) [Compound 1746807] ?
Resp: 16 % UTC

Req: May I ask what APOE RNA (% UTC) has been recorded for 1746797 (k[5mC]*kT*dT[ms]dG[ms]dG[ms]kT*dG[ms]dA[ms]dA[ms]dT*d[5mC]*dT*dT*dT*dA[ms]dT*kT*dA[ms]kA*kA; antisense) [Compound 1746797] ?
Resp: 42 % UTC

Req: May I ask what APOE RNA (% UTC) has been recorded for 1747052 (k[5mC]*dT[ms]kT*kG*dG[ms]kT*dG[ms]dA[ms]dA[ms]dT*d[5mC]*dT*dT*dT*dA[ms]dT*kT*dA[ms]dA[ms]kA; antisense) [Compound 1747052] ?
Resp: 31 % UTC

Req: May I ask what APOE RNA (% UTC) has been recorded for 1747051 (k[5mC]*kT*dT[ms]kG*dG[ms]kT*dG[ms]dA[ms]dA[ms]dT*d[5mC]*dT*dT*dT*dA[ms]dT*kT*dA[ms]dA[ms]kA; antisense) [Compound 1747051] ?
Resp: 31 % UTC

Req: May I ask what APOE RNA (% UTC) has been recorded for 1746811 (k[5mC]*dT[ms]dT[ms]kG*kG*dT[ms]dG[ms]dA[ms]dA[ms]dT*d[5mC]*dT*dT*dT*dA[ms]dT*dT[ms]kA*kA*kA; antisense) [Compound 1746811] ?
Resp: 12 % UTC

Req: May I ask what APOE RNA (% UTC) has been recorded for 1746803 (k[5mC]*dT[ms]dT[ms]kG*dG[ms]kT*dG[ms]dA[ms]dA[ms]dT*d[5mC]*dT*dT*dT*dA[ms]dT*kT*dA[ms]kA*kA; antisense) [Compound 1746803] ?
Resp: 22 % UTC

Req: May I ask what APOE RNA (% UTC) has been recorded for 1746804 (k[5mC]*kT*kT*dG[ms]dG[ms]dT[ms]dG[ms]dA[ms]dA[ms]dT*d[5mC]*dT*dT*dT*dA[ms]dT*dT[ms]kA*kA*kA; antisense) [Compound 1746804] ?
Resp: 4 % UTC

Req: May I ask what APOE RNA (% UTC) has been recorded for 1746789 (k[5mC]*dT[ms]kT*dG[ms]kG*dT[ms]dG[ms]dA[ms]dA[ms]dT*d[5mC]*dT*dT*dT*dA[ms]dT*kT*kA*dA[ms]kA; antisense) [Compound 1746789] ?
Resp: 10 % UTC

Req: May I ask what APOE RNA (% UTC) has been recorded for 1746796 (k[5mC]*kT*dT[ms]dG[ms]kG*dT[ms]dG[ms]dA[ms]dA[ms]dT*d[5mC]*dT*dT*dT*dA[ms]dT*kT*dA[ms]kA*kA; antisense) [Compound 1746796] ?
Resp: 28 % UTC

Req: May I ask what APOE RNA (% UTC) has been recorded for 1746793 (k[5mC]*dT[ms]dT[ms]dG[ms]kG*kT*dG[ms]dA[ms]dA[ms]dT*d[5mC]*dT*dT*dT*dA[ms]dT*kT*kA*dA[ms]kA; antisense) [Compound 1746793] ?
Resp: 1 % UTC

Req: May I ask what APOE RNA (% UTC) has been recorded for 1746785 (k[5mC]*kT*dT[ms]kG*dG[ms]dT[ms]dG[ms]dA[ms]dA[ms]dT*d[5mC]*dT*dT*dT*dA[ms]dT*kT*kA*dA[ms]kA; antisense) [Compound 1746785] ?
Resp: 8 % UTC

Req: May I ask what APOE RNA (% UTC) has been recorded for 1746792 (k[5mC]*dT[ms]dT[ms]kG*dG[ms]kT*dG[ms]dA[ms]dA[ms]dT*d[5mC]*dT*dT*dT*dA[ms]dT*kT*kA*dA[ms]kA; antisense) [Compound 1746792] ?
Resp: 8 % UTC
